This collection of values is drawn from paper doi:10.1101/2024.08.19.608619.

- TEST_PROTOCOL: Permeability Papp (AB) MDR1/MDCKII
- STATED_CONDITIONS: In vitro MDR1-MDCKII permeability, recovery A to B, no inhibitor
Parameter perc_recovery_a_to_b_mean: see the listing below.
READOUT_TYPE: perc_recovery_a_to_b_mean (%)

• CC(C)[C@@H](Nc1ncnc2[nH]ccc12)c1ccc2c(c1)S(=O)(=O)CCO2 = 69.0
• CC(C)[C@H](Nc1ncnc2[nH]c(-c3cnn(C)c3C#N)cc12)c1ccc2c(c1)OCCO2 = 39.3
• CC(C)(C)[C@H](Nc1ncnc2[nH]c(-c3cnn(CC(N)=O)c3)cc12)c1ccc2c(n1)OCCO2 (single isomer, unassigned) = 95.8
• CCNC(=O)c1cc2c(N[C@H](c3ccc4c(c3)OCCO4)C(C)C)ncnc2[nH]1 (single isomer, unassigned) [ASAP-0013827] = 81.7
• CNC(=O)c1cccc(-c2cc3c(N[C@@H](c4ccc5c(c4)S(=O)(=O)CCC5)C(C)C)ncnc3[nH]2)c1 = 67.1
• CC(C)[C@H](Nc1ncnc2[nH]c(-c3cnn(C)c3)cc12)c1ccc2c(c1)S(=O)(=O)CCC2 (single isomer, unassigned) = 65.0
• CCNC(=O)c1cc2c(NC(c3ccc4c(c3)S(=O)(=O)CCC4)C(C)C)ncnc2[nH]1 (centres unmarked) = 66.9
• CC(C)[C@H](Nc1ncnc2[nH]c(C(=O)N[C@H]3CCN(C)C3)cc12)c1ccc2c(c1)S(=O)(=O)CCC2 = 89.9

* * *

- TARGET_ENTITY: SARS-CoV-2 nsp3-mac1 (Severe acute respiratory syndrome coronavirus 2, UniProt P0DTD1)
- TEST_PROTOCOL: biochemical
- Format: biochemical
- STATED_CONDITIONS: SARS-CoV-2 nsp3 macrodomain TR-FRET single point; concentration 50.0 uM; n=2
READOUT_TYPE: perc_inhibition_mean (%)

- O=C(NCc1cccc(F)n1)c1cnc2nc[nH]c(=O)c2c1: -14.823
- C(=C1CCCCC1)c1ncnc2[nH]ccc12: -5.46
- c1nc(-c2nc(-c3cc(C4CC4)[nH]n3)no2)c2cc[nH]c2n1: -4.799
- O=C(Nc1cnc2[nH]ncc2c1)c1ccncc1Cl: -2.752
- Cc1[nH]c2ncnc(NCc3ccco3)c2c1C: 16.967
- Oc1cc(CNc2ncnc3[nH]cnc23)ccn1: -0.821
- CCC(CC)(C(=O)Nc1nc(C)nc2[nH]ccc12)C(=O)OC(C)(C)C: -9.456
- Cc1ccc(-c2n[nH]cc2CNc2cnc3[nH]ncc3c2)o1: -21.592
- O=C(Nc1cnc2[nH]ncc2c1)c1cccc(-c2noc(C(F)(F)F)n2)c1: -0.675
- c1cc(CNc2ncnc3nc[nH]c23)n2ncnc2c1: 1.353
- Cc1nc(NC(=O)c2nccc3ccncc23)c2cc[nH]c2n1: -5.834
- c1cc(-c2nnc(Sc3ncnc4[nH]ccc34)[nH]2)ccn1: 10.682
- Cc1cc(C(F)(F)F)nn1CCNc1ncnc2[nH]ccc12: -3.037
- O=C(NCc1nc2cccnc2[nH]1)c1cnc2nc[nH]c(=O)c2c1: -1.987
- Cc1nc(NC(=O)c2ccnn2C(C)C)c2cc[nH]c2n1: -2.642
- O=c1[nH]cnc2[nH]cc(-c3ccoc3)c12: -14.47
